Source of measurements: ChEMBL document CHEMBL5576063

The compounds listed here are annotated with their pIC50.
Test system: HT-29
Assay: Antiproliferative activity against human HT-29 cells assessed as inhibition of cell growth by MTT assay
Assay type: functional, cell-based
pIC50: −log10 of the molar value.

{"COMPOUND": "COc1ccc(/C=C\\c2cc(OC)c(OC)c(OC)c2)cc1O [COMBRETASTATIN A4]", "pIC50": 5.78}
{"COMPOUND": "COc1ccc(/C=C(/C(=O)Nc2ccc(C(C)C)cc2)c2cc(OC)c(OC)c(OC)c2)cc1OC(C)=O", "pIC50": 4.74}
{"COMPOUND": "COc1ccc(/C=C(/C(=O)Nc2ccc(Cl)cc2)c2cc(OC)c(OC)c(OC)c2)cc1OC(C)=O", "pIC50": 4.52}
{"COMPOUND": "COc1ccc(/C=C(/C(=O)Nc2cc(OC)c(OC)c(OC)c2)c2cc(OC)c(OC)c(OC)c2)cc1OC(C)=O", "pIC50": 5.33}
{"COMPOUND": "COc1ccc(/C=C(/C(=O)Nc2ccccc2)c2cc(OC)c(OC)c(OC)c2)cc1O", "pIC50": 5.27}

====

Target: Tubulin
Test: Inhibition of tubulin polymerization (unknown origin) measured upto 30 mins by spectrophotometry based analysis
MEASURED QUANTITY: IC50 (µM)

{"SMILES INPUT": "COc1ccc(/C=C(/C(=O)Nc2ccccc2)c2cc(OC)c(OC)c(OC)c2)cc1O", "TARGET UNDER TEST": "Tubulin", "UNIT INFO": "µM", "MEASURED NUMBER": 6.9}
